target: AC1-C1b/CaM (Homo sapiens, UniProt P0DP23); construct: made in house; host or cells: E. coli BL21-CodonPlus (DE3)-RIPL; assay: AC1-C1b/CaM fluorescence polarization (FP) assay; type: binding; conditions: 100 nM AC1-C1b, 100 nM GST-CaM; 95% CI in brackets
Where a name gives a salt, the structure may show the parent alone.
Below, each entry is listed with its recorded IC50.
Report the figure along with its unit, number first.

Below are worked cases with known answers.
{"columns": ["COMPOUND", "SYSTEM NAME", "TEST RESULT"],
 "data": [
  ["CC1=C(CCC(=O)O)c2cc3[nH]c(cc4nc(cc5[nH]c(cc1n2)c(C)c5C(C)O)C(C)=C4C(C)O)c(C)c3CCC(=O)O (centres unmarked) [Compound 6, Hematoporphyrin]", "AC1-C1b/CaM (Homo sapiens, UniProt P0DP23)", "14.7 µM"],
  ["CCc1cc(C(c2cccs2)N2CCN(C)CC2)c(NC(=O)c2ccco2)s1 (centres unmarked) [Compound 15]", "AC1-C1b/CaM (Homo sapiens, UniProt P0DP23)", "22.1 µM"],
  ["[H]/N=C(\\N/C(=N/[H])NCCCCCCNC(=N)NC(=N)Nc1ccc(Cl)cc1)Nc1ccc(Cl)cc1 [Compound 9, Chlorhexidine HCl]", "AC1-C1b/CaM (Homo sapiens, UniProt P0DP23)", "22 µM"],
  ["CCc1oc2ccccc2c1C(=O)c1cc(Br)c(O)c(Br)c1 [Compound 12, Benzbromarone]", "AC1-C1b/CaM (Homo sapiens, UniProt P0DP23)", "33 µM"]
]}

Then there is this compound:
Retrieve IC50 measured for CCC12CN3CC(CC)(CN(C1)C31C(=O)N(C)c3ccc(Br)cc31)C2=O (centres unmarked) [Compound 14] and print it.
58.2 µM

====

Below, each entry is listed with its recorded IC50.
target: AC1-C1b/CaM (Homo sapiens, UniProt P0DP23); construct: made in house; host or cells: E. coli BL21-CodonPlus (DE3)-RIPL; experiment: AC1-C1b/CaM fluorescence polarization (FP) assay; type: binding; details: 100 nM AC1-C1b, 100 nM GST-CaM; 95% CI in brackets
Dear colleague, please return just the value in µM, with no unit written.

Below are worked cases with known answers.
{"columns": ["MOLECULE", "IC50 (µM)"],
 "data": [
  ["CCCCC(CC)CNC(=N)NC(=N)NCCCCCCNC(=N)NC(=N)NCC(CC)CCCC (centres unmarked) [Compound 3, Alexidine]", 2.8],
  ["CN(C(=O)CN(CCO)CC(=O)N(C)C(C)(C)Cc1ccccc1)C(C)(C)Cc1ccccc1 [Compound 8, Oxetacaine]", 20],
  ["CN1CCN(CCNC(=O)c2cc3c(=O)n(C)c(=O)n(C)c3s2)CC1 [Compound 17]", 75.4],
  ["CN(C)c1ccc2nc3ccc(=[N+](C)C)cc-3sc2c1 [Compound 2, Methylene Blue]", 2.18],
  ["CCCCCCCCCCCCCCCC[N+](C)(C)CCN(Cc1ccc(OC)cc1)c1ncccn1 [Compound 4, Thonzonium]", 4.14],
  ["Cc1cc2nc3ccc(N(C)C)cc3[s+]c2cc1N [Compound 1, Tolonium Chloride]", 1.24],
  ["Cn1cc(C(=O)Nc2ccc(Cl)cc2Cl)c2[nH]c(=O)n(-c3ccc(Cl)cc3)c(=O)c21 [Compound 21]", 9.9]
]}

Then there is this molecule:
Recall the reported IC50 of CC(=O)Oc1c(Sc2ccc(Cl)cc2)c(C)nn1C(C)(C)C [Compound 13] when tested on AC1-C1b/CaM (Homo sapiens, UniProt P0DP23).
73.5
